target: Peptide 5: Biotin-…-[Tyr(PC)]-acid; assay: scFv ELISA
Sequence (peptide, as listed by the source): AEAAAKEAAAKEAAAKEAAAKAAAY
Quantity: OD450 (OD450)
Could you give me the number in OD450? Just the number is fine.

PcOxP_DB04_A05 (scFv, V domains shown, scFv in periplasmic extract) VH: EVQLLESGGGLVQPGGSLRLSCAASGFTFSDFYIEWVRQAPGKGLEWVAASRNKANDYTTEYADSVKGRFTISRDNSKNTLYLQMNSLRAEDTAVYYCARDYYGSSYWYFDVWGQGTLVTVSS VL: DIVMTQSPDSLAVSLGERATINCTASESLYSSKHKVHYLAWYQQKPGQPPKLLIYGASNREIGVPDRFSGSGSGTDFTLTISSLQAEDVAVYYCAQFYSYPLTFGGGTKVEIK = 1.29

// PcOxP_DB04_D12 (scFv, V domains shown, scFv in periplasmic extract) VH: EVQLLESGGGLVQPGGSLRLSCAASGFTFSDQYMEWVRQAPGKGLEWVAASRNKANDWTTEYADSVKGRFTISRDNSKNTLYLQMNSLRAEDTAVYYCARDYYGSSYWYFDVWGQGTLVTVSS VL: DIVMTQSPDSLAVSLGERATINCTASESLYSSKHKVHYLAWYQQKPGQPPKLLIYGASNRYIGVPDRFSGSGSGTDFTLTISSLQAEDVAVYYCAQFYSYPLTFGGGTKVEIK : OD450 value = 1.03

// PcOxP_DB02_D03 (scFv, V domains shown, scFv in periplasmic extract) VH: EVQLLESGGGLVQPGGSLRLSCAASGFTQSDFYMEWVRQAPGKGLEWVAASRNKANAYTTEYADSVKGRFTISRDNSKNTLYLQMNSLRAEDTAVYYCARDYYGYSYWYFDVWGQGTLVTVSS VL: DIVMTQSPDSLAVSLGERATINCTASESLYSSKHKVHYLAWYQQKPGQPPKLLIYGNSNRYIGVPDRFSGSGSGTDFTLTISSLQAEDVAVYYCGQFYSYPLTFGGGTKVEIK : OD450 value = 0.71
